target: Sigma non-opioid intracellular receptor 1 (Cavia porcellus, UniProt Q60492); assay: Displacement of [3H](+)-Pentazocine from sigma 1 receptor in guinea pig brain membranes after 120 mins by scintillation counting analysis
Sequence (Q60492 whole entry): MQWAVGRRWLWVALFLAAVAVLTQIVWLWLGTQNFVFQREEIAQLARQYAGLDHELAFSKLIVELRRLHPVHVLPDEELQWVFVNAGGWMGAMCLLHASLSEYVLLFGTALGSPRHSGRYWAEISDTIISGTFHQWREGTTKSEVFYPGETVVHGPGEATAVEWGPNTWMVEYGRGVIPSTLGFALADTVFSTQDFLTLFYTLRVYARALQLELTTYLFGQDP
pKi: −log10 of the molar value.
Would you mind labelling by pKi? At or over 8 is Met, under is Not met.

Solved entries:
[[record]]
linenotation = "O[C@@H]1C[C@@H]2CN(CC3CCCCC3)[C@H]1CN2Cc1ccccc1"
label = "Not met"

[[record]]
linenotation = "O[C@@H]1CC[C@H]2CN(CC3CCCCC3)[C@@H]1CN2Cc1ccccc1"
label = "Met"


Is pKi at least 8? Consider O[C@H]1C[C@H]2CN(CC3CCCCC3)[C@@H]1CN2Cc1ccccc1
Met
